Reference for the values: the Immune Epitope Database (IEDB)

testSystem: HLA-B*08:01
protocolText: IEDB peptide-MHC binding, purified MHC/direct/fluorescence; filed as Kd, often an IC50 or EC50 that approximates it; bounds were set here for any values at or beyond the usual limits of such assays
conditionSummary: source organism: Pasteurella multocida
measurementType: Kd

# return Kd of "VMLDWGIEL" (system: HLA-B*08:01)
≥ 20 µM

---

testSystem: HLA-A*11:01
protocolText: IEDB peptide-MHC binding, purified MHC/competitive/radioactivity; filed as Kd, often an IC50 or EC50 that approximates it; bounds were set here for any values at or beyond the usual limits of such assays
conditionSummary: source organism: Hepacivirus hominis
pKd: −log10 of the molar value.
measurementType: pKd

Find the measured pKd of "RNWAHSSL" and report it.
≤ 4.06
